System: HUVEC
testDescription: Cytotoxicity against human HUVEC cells assessed as reduction in cell viability after 48 hrs by MTT assay
Type: cell-based
pIC50: −log10 of the molar value.
measure: pIC50

Asked: Please report the recorded pIC50 for CC(=O)O[C@H]1CC[C@@]2(C)[C@@H](CC[C@H]3[C@@H]4CC=C(/C(C)=N/NC(N)=O)[C@@]4(C)C(=O)C[C@@H]32)C1 .
Given back: < 4.00

Asked: Please report the recorded pIC50 for CC(=O)O[C@H]1CC[C@@]2(C)[C@@H](CC[C@H]3[C@@H]4CC=C(/C(C)=N/NC(N)=S)[C@@]4(C)C(=O)C[C@@H]32)C1 .
Given back: < 4.00

Asked: Please report the recorded pIC50 for C[C@@H]1CC[C@@]2(OC1)O[C@H]1C[C@H]3[C@@H]4CC[C@H]5C[C@@H](O)CC[C@]5(C)[C@H]4CC(=O)[C@]3(C)[C@H]1[C@@H]2C .
Given back: < 4.00

---

Test system: MCF7
testDescription: Antiproliferative activity against human MCF7 cells assessed as reduction in cell viability after 48 hrs by MTT assay
Type: functional, cell-based
conditionInfo: MCF7, 48 h
measure: log10(IC50) (log10 of the value in µM)
Each number you see is log10 of IC50, and the unit inside the log is µM.

Asked: Please report the recorded log10(IC50) for CC(=O)O[C@H]1CC[C@@]2(C)[C@@H](CC[C@@H]3[C@@H]2CC(=O)N[C@]2(C)C(/C(C)=N/NC(=S)Nc4ccc(C(F)(F)F)cc4)=CC[C@@H]32)C1 .
Given back: 1.36

Asked: Please report the recorded log10(IC50) for CC(=O)O[C@H]1CC[C@@]2(C)[C@@H](CC[C@@H]3[C@@H]2CC(=O)N[C@]2(C)C(/C(C)=N/NC(=S)Nc4ccccc4C)=CC[C@@H]32)C1 .
Given back: 1.47

Asked: Please report the recorded log10(IC50) for CC(=O)O[C@H]1CC[C@@]2(C)[C@@H](CC[C@H]3[C@@H]4CC=C(/C(C)=N/NC(=S)Nc5ccccc5)[C@@]4(C)C(=O)C[C@@H]32)C1 .
Given back: 0.33

Asked: Please report the recorded log10(IC50) for C[C@@H]1CC[C@@]2(OC1)O[C@H]1C[C@H]3[C@@H]4CC[C@H]5C[C@@H](O)CC[C@]5(C)[C@H]4CC(=O)[C@]3(C)[C@H]1[C@@H]2C .
Given back: 1.46

Asked: Please report the recorded log10(IC50) for CC(=O)O[C@H]1CC[C@@]2(C)[C@@H](CC[C@H]3[C@@H]4CC=C(/C(C)=N/NC(=S)Nc5ccc(C(F)(F)F)cc5)[C@@]4(C)C(=O)C[C@@H]32)C1 .
Given back: 0.84

Asked: Please report the recorded log10(IC50) for CC(=O)O[C@H]1CC[C@@]2(C)[C@@H](CC[C@@H]3[C@@H]2CC(=O)N[C@]2(C)C(/C(C)=N/NC(=S)Nc4ccccc4)=CC[C@@H]32)C1 .
Given back: 1.28

Asked: Please report the recorded log10(IC50) for CC(=O)O[C@H]1CC[C@@]2(C)[C@@H](CC[C@H]3[C@@H]4CC=C(/C(C)=N/NC(=O)Nc5ccccc5)[C@@]4(C)C(=O)C[C@@H]32)C1 .
Given back: 1.06

Asked: Please report the recorded log10(IC50) for CC(=O)O[C@H]1CC[C@@]2(C)[C@@H](CC[C@H]3[C@@H]4CC=C(/C(C)=N/NC(N)=O)[C@@]4(C)C(=O)C[C@@H]32)C1 .
Given back: 0.24

Asked: Please report the recorded log10(IC50) for CC(=O)O[C@H]1CC[C@@]2(C)[C@@H](CC[C@@H]3[C@@H]2CC(=O)N[C@]2(C)C(/C(C)=N/NC(=O)Nc4ccccc4)=CC[C@@H]32)C1 .
Given back: 1.55

Asked: Please report the recorded log10(IC50) for CC(=O)O[C@H]1CC[C@@]2(C)[C@@H](CC[C@@H]3[C@@H]2CC(=O)N[C@]2(C)C(/C(C)=N/NC(N)=S)=CC[C@@H]32)C1 .
Given back: 1.18

Asked: Please report the recorded log10(IC50) for CC(=O)O[C@H]1CC[C@@]2(C)[C@@H](CC[C@H]3[C@@H]4CC=C(/C(C)=N/NC(N)=S)[C@@]4(C)C(=O)C[C@@H]32)C1 .
Given back: 0.20

Asked: Please report the recorded log10(IC50) for CC(=O)O[C@H]1CC[C@@]2(C)[C@@H](CC[C@H]3[C@@H]4CC=C(/C(C)=N/NC(=S)Nc5ccccc5C)[C@@]4(C)C(=O)C[C@@H]32)C1 .
Given back: 0.85

Asked: Please report the recorded log10(IC50) for CC(=O)O[C@H]1CC[C@@]2(C)[C@@H](CC[C@@H]3[C@@H]2CC(=O)N[C@]2(C)C(/C(C)=N/NC(N)=O)=CC[C@@H]32)C1 .
Given back: 1.24
